# Method Notes: refractive index (Na D-line) (dimensionless)
# Assay Context: 288.15 K; 101.33 kPa; Liquid; Standard Abbe refractometry
Record form. Attribute: refractive index. Fill in for each entry.
No unit in the answer, please; the number alone is enough.

Ask: Which measured refractive index value corresponds to COC(C)=O [methyl ethanoate] ?
Reply: 1.36414

Ask: Record: CC(C)=O [acetone]
Reply: 1.36146

Ask: Record: CCn1cc[n+](C)c1.O=S(=O)([O-])C(F)(F)F [1-ethyl-3-methylimidazolium trifluoromethanesulfonate]
Reply: 1.43599

Ask: Record: CCOC(C)=O [ethyl acetate]
Reply: 1.37519

* * *

# Method Notes: refractive index (Na D-line) (dimensionless)
# Assay Context: 308.15 K; 101.33 kPa; Liquid; Standard Abbe refractometry
Record form. Attribute: refractive index. Fill in for each entry.
No unit in the answer, please; the number alone is enough.

Ask: Which measured refractive index value corresponds to CCOC(C)=O [ethyl acetate] ?
Reply: 1.3646

Ask: Record: CCn1cc[n+](C)c1.O=S(=O)([O-])C(F)(F)F [1-ethyl-3-methylimidazolium trifluoromethanesulfonate]
Reply: 1.4304

Ask: Record: COC(C)=O [methyl ethanoate]
Reply: 1.35367

Ask: Record: CC(C)=O [acetone]
Reply: 1.35054

* * *

# Method Notes: refractive index (Na D-line) (dimensionless)
# Assay Context: 318.15 K; 101.33 kPa; Liquid; Standard Abbe refractometry
Numbers after ± are expanded uncertainties.
Readout Kind: refractive index

Ask: Which measured refractive index value corresponds to CCn1cc[n+](C)c1.O=S(=O)([O-])C(F)(F)F [1-ethyl-3-methylimidazolium trifluoromethanesulfonate] ?
Reply: 1.42767 ± 0.00051

Ask: Record: CC(C)=O
Reply: 1.34491 ± 0.001

Ask: Record: COC(C)=O [methyl ethanoate]
Reply: 1.34823 ± 0.00033

Ask: Record: CCOC(C)=O [ethyl acetate]
Reply: 1.35919 ± 0.00037

* * *

# Method Notes: refractive index (Na D-line) (dimensionless)
# Assay Context: 298.15 K; 101.33 kPa; Liquid; Standard Abbe refractometry
± gives the expanded uncertainty stated by the source.
Readout Kind: refractive index

Ask: Which measured refractive index value corresponds to CCOC(C)=O [ethyl acetate] ?
Reply: 1.36994 ± 0.00037

Ask: Record: COC(C)=O [methyl ethanoate]
Reply: 1.35881 ± 0.00033

Ask: Record: CC(C)=O
Reply: 1.35597 ± 0.001

Ask: Record: CCn1cc[n+](C)c1.O=S(=O)([O-])C(F)(F)F [1-ethyl-3-methylimidazolium trifluoromethanesulfonate]
Reply: 1.4332 ± 0.00051

Sourced from the NIST ThermoML archive (doi:10.1021/je9005618)
